Assay: Inhibition of Mycobacterium tuberculosis DNA gyrase
observed-property: IC50
Report the figure along with its unit, number first.

Field request: IC50 | item: COc1c(N2CCN(Cn3c(O)c(/N=N/C(=N)S)c4ccccc43)C(C)C2)c(F)cc2c(=O)c(C(=O)O)cn(C3CC3)c12 (stereo unspecified) 5 µg/mL

Each molecule below has a reported value. Please supply its IC50.
1. COc1c(N2CCN(Cn3c(O)c(/N=N/C(=N)S)c4cc(Cl)ccc43)C(C)C2)c(F)cc2c(=O)c(C(=O)O)cn(C3CC3)c12 (stereo unspecified)
2. COc1c(N2CCN(Cn3c(O)c(/N=N/C(=N)S)c4cc(C)ccc43)C(C)C2)c(F)cc2c(=O)c(C(=O)O)cn(C3CC3)c12 (stereo unspecified)

4 µg/mL
10 µg/mL

Provide IC50 values for the following items, in order.
1. COc1c(N2CCN(CN3C(=O)/C(=N\c4ccc(S(=O)(=O)Nc5ncccn5)cc4)c4cc(Cl)ccc43)C(C)C2)c(F)cc2c(=O)c(C(=O)O)cn(C3CC3)c12 (stereo unspecified)
2. COc1c(N2CCN(CN3C(=O)/C(=N\c4ccc(S(=O)(=O)Nc5ncccn5)cc4)c4cc(F)ccc43)C(C)C2)c(F)cc2c(=O)c(C(=O)O)cn(C3CC3)c12 (stereo unspecified)
3. COc1c(N2CCN(Cn3c(O)c(/N=N/C(=O)c4ccncc4)c4cc(Cl)ccc43)C(C)C2)c(F)cc2c(=O)c(C(=O)O)cn(C3CC3)c12 (stereo unspecified)

6 µg/mL
6 µg/mL
5 µg/mL
